Hey, just so you know, these numbers are from PubChem BioAssay (NCI).

Test system: SK-OV-3 ovarian
method.description: NCI-60 one-dose screen, 48 h
conditions: 10 µM unless noted
Compounds without any hit were thinned out: in the full panel of roughly 83,000, 20% have a hit. Calls of active or inactive are those of the source. The calls were made as follows: active = growth percent below 10; inactive = the rest.
Pick one and only one: Y (active), N (inactive)

How was OCCN1CCCN(CCCN2c3ccccc3Sc3ccc(C(F)(F)F)cc32)CC1 classified in this test?
N

Entry CCOC(=O)c1c(C)oc2ncnc(Nc3ccc(NC(=O)Nc4ccc(CC)cc4)cc3)c12 please
N

Do the same for O=C1N/C(=N\c2nnc(-c3ccc(O)cc3)s2)S/C1=C\c1ccccc1O please
N

What about C=CCNC(=S)NNc1ccc([N+](=O)[O-])cn1 ?
N

How about O=C(Nc1ccc(-n2cc(-c3ccncc3)c(-c3ccc(Cl)c(O)c3)n2)cc1)c1cc(C(F)(F)F)cc(C(F)(F)F)c1 ?
N

Field entry: CC(C)(CNC1CCCCC1)OC(=O)c1ccccc1
N

// next record O=C(Nc1ccccc1)Nc1ccc(Nc2ncnc3sc4c(c23)CCCC4)cc1
N

Now try COc1cc2c(c(OC)c1OC)C(=O)CC(c1cccc(C(=O)Nc3cccc(Br)c3)c1)O2 (configuration not stated) .
N

And O=C1/C(=C\c2cn(-c3nc(N4CCOCC4)nc(N4CCOCC4)n3)c3ccccc23)c2ccccc2N1c1c(Cl)cccc1Cl ?
Y

Do the same for COc1ccc(/C=C(/C(=O)N2CCN(c3ccc(C)cc3)CC2)c2cc(OC)c(OC)c(OC)c2)cc1N please
N

# repeat for Cc1ccc(CC(=O)O)c(C)c1
N

Follow-up item: COCC(=O)NNc1[nH]c(-c2ccc(OC)cc2)cc1C#N
N

Now try CC(=O)Nc1nc(C)c(C(=O)N/N=C/N2CCOCC2)s1 .
N

Same question, COc1ccc(C2CC(=O)c3c(O)cc(OC4OC(COC5OC(C)C(O)C(O)C5O)C(O)C(O)C4O)cc3O2)cc1O (configuration not stated) this time
N

Item: C=CCN(C)C
N

Can you check CCc1c(C)c2ccc(OCC(=O)N=Nc3c(O)[nH]c4ccccc34)c(C)c2oc1=O next?
N

Item: N=C(N)N=Nc1ccc(NN=C(N)N)cc1
N

Same question, COc1ccc(Nc2c3ccccc3nc3ccccc23)cc1 this time
N

Another: CCOC(=O)CSSCC(=O)OCC
N

And what about the molecule CC(C)OC(=O)c1ccc2n1CCCc1cnc(Nc3ccccc3)nc1-2 ?
N

Another molecule to check: COc1ccc(-c2cn3ccnc3c(-c3ccc4ncn(C5CCCCC5)c4c3)n2)cc1
N

Now give it for COc1ccc(-c2nc(SCC(C)C)nc(Nc3ccccc3)c2C#N)cc1 too.
N

---

Test system: UACC-257 melanoma
method.description: NCI-60 one-dose screen, 48 h
conditions: 10 µM unless noted
Procedure: Cells are grown in 96 well plates and exposed to the test compound for 48 hours. Compounds are tested at a single concentration, which is 10^-5 M for most compounds. The reported endpoint is percent growth (GI% or GIPRCNT), where numbers from 0 - 100% represent growth inhibition, and numbers from -100% - 0 represent cell death. For example, a value of 40 represents 60% growth inhibition. A value of 0 means no net growth occurred over the course of the experiment. […]
About 83,000 compounds went through this panel and 20% of them were active in at least one assay; those are over-represented in the sample as a whole. The source made the active and inactive calls. Rule for the calls: active = growth percent below 10; inactive = the rest.
Permitted responses: Yes (active), No (inactive)

Please let me know the test result on file for Ic1ccc(SSc2ccc(I)cc2)cc1 .
No

Do the same for Cc1c(Cc2ccccc2)c(=O)oc2c(C)c(OCc3n[nH]c(=S)o3)ccc12 please
No

Also, CC([C@H]1CC=C2C3CCC4=C[C@@H](N(C)C)CC[C@]4(C)C3CC[C@@]21C)N(C)C (some centres undefined) please.
No

# iterate: CC1(c2ccc(Br)cc2)NC(=O)NC1=O (centres undefined)
No

For Cc1c(Cc2ccccc2)c(=O)oc2c(C)c(OCC(=O)n3nc(C#N)cc3N)ccc12 then?
No

Can you check O=C(/C=C1\C(=O)N(Cc2ccc([N+](=O)[O-])cc2)c2ccccc21)c1ccc(OCCN2CCCCC2)cc1 next?
Yes

Next entry: Nc1cc(N)c2nc(NCCc3ccc(Cl)c(Cl)c3)cnc2c1
No

Another molecule: CCOc1ccc(/C=N/NC(=O)c2cccc3ccccc23)cc1OCC
No

Please give the result for Cc1nnc(-c2cc3c(ccc4ccccc43)oc2=O)c2cn(-c3ccc(Cl)cc3)nc12 too.
No

One more molecule: CCN(CC)CCCNc1c2ccc(Cl)cc2nc2ccc(OC)cc12
No

Continue with Cc1nc(N)sc1C(=O)NCCO
No

Can you handle CC(O)c1cc[cH-]c1.[Fe+2].c1cc[cH-]c1 (centres undefined) next?
No

Also, Clc1ccc(N/N=C(/c2ccccc2)c2ccccn2)nc1 please.
No

Try this molecule next: CCCCCCCCCCCCCCCC[n+]1cccc(C#N)c1
No

Please do the same for C/C(CCC(=O)O)=N/Nc1ccc([N+](=O)[O-])cc1 as well.
No

Then this molecule: Nc1ccc(S(=O)(=O)Nc2cc(F)cc(F)c2)cc1
No

Another: COc1ccc(C2=C/C(=C\c3ccc(Cl)cc3)C(=O)NN2C(=S)NN)cc1
No

Also, c1ccc(Nc2ccccn2)cc1 please.
No

And O=C1Nc2c(c(=O)n(-c3ccccc3)c3ccccc23)C(c2ccc(Cl)cc2)N1 (centres undefined) ?
No
